- system: Carbonic anhydrase 12 (Homo sapiens, UniProt O43570)
- Sequence (O43570 whole entry): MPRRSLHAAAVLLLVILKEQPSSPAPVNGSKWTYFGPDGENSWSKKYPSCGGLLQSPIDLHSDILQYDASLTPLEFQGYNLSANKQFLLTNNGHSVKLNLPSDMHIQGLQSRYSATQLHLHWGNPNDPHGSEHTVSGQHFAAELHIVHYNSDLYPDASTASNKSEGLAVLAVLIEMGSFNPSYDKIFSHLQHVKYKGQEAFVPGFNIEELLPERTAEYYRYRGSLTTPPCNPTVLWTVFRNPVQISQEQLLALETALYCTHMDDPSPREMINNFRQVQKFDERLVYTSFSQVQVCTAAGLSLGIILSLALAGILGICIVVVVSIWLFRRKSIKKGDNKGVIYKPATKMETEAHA
- test_description: Inhibition of recombinant human carbonic anhydrase 12 preincubated with enzyme for 15 mins by phenol red dye based stopped flow CO2 hydration assay

smiles_entry	Ki (nM)
CC1(C)O[C@H]2[C@H](O)[C@H]([C@H]3[C@H](O)[C@H]4OC[C@@H](O4)[C@H]3O)N(CCCCCCn3cc(CNc4ccc(S(N)(=O)=O)cc4)nn3)C[C@H]2O1	770
CC1(C)O[C@H]2[C@H](O)CN(CCCCCCn3cc(CNc4ccc(S(N)(=O)=O)cc4)nn3)C[C@H]2O1	541

----------
- system: Carbonic anhydrase 9 (Homo sapiens, UniProt Q16790)
- test_description: Inhibition of recombinant human carbonic anhydrase 9 preincubated with enzyme for 15 mins by phenol red dye based stopped flow CO2 hydration assay
Ki reference
assay_metric: Ki (nM)

smiles_entry	result_number
CC1(C)O[C@H]2[C@H](O)CN(CCCCCCn3cc(CNc4ccc(S(N)(=O)=O)cc4)nn3)C[C@H]2O1	2980
CC1(C)O[C@H]2[C@H](O)[C@H]([C@H]3[C@H](O)[C@H]4OC[C@@H](O4)[C@H]3O)N(CCCCCCn3cc(CNc4ccc(S(N)(=O)=O)cc4)nn3)C[C@H]2O1	35.9
